Hello, the source for this data is patent US20240398773A1, in case you need it.

- Method notes: Study CL-004 plasma PK
- Type: in vivo, human
- Test context: human, plasma; Day 1, 600 mg dose

{"Compound": "O[C@@](Cn1cnnn1)(c1ccc(F)cc1F)C(F)(F)c1ccc(-c2ccc(OCC(F)(F)F)cc2)cn1 [Oteseconazole, oteseconazole]", "Cmax": "968 ng/mL"}

====

- Method notes: Study CL-017 plasma PK
- Format: in vivo, human
- Test context: human, plasma, oral, 600 mg, Day 1, 8 hours postdose; read-out: mean (SD) plasma concentration
Readout kind: concentration at 8 h (ng/mL)

{"Molecule": "O[C@@](Cn1cnnn1)(c1ccc(F)cc1F)C(F)(F)c1ccc(-c2ccc(OCC(F)(F)F)cc2)cn1 [Oteseconazole, oteseconazole]", "Result value": 1300}
